Data credit: patent US20140079636A1

Assay: Tissue distribution of SDC-TRAPs in plasma and tumor (Example 14 extraction procedure)
Settings: in vivo; Tissue Distribution Data for SDC-TRAP-0076; Time 6 h; read-out: Tumor/Plasma Ratio
assay endpoint: Kp
Answers are plain numbers.

What Kp value was documented for this compound, CCNC(=O)c1nnc(-c2cc(C(C)C)c(O)cc2O)n1-c1ccc(CN2CCC(C(=O)N3CCC(C(=O)OC4(CC)C(=O)OCc5c4cc4n(c5=O)Cc5c-4nc4ccc(O)cc4c5CC)CC3)CC2)cc1 (stereo not shown) ? 7.25

====

Target: Hsp90α (Homo sapiens)
Experiment: Hsp90α binding assay (fluorescence polarization, FITC-labeled geldanamycin)
Conditions: read-out: Hsp90 binding EC50
assay endpoint: EC50 (µM)
Give bare numbers, in µM.

Some compounds with recorded EC50:
1. CC(C)c1cc(-c2nnc(O)n2-c2ccc(CC3CCN(CC(=O)Nc4cccc5c4CN(C4CCC(=O)NC4=O)C5=O)CC3)cc2)c(O)cc1O (stereo not shown)    0.159
2. COc1cc(O)c(-c2nnc(C(=O)NC(C)C)n2-c2ccc(CN3CCC(C(=O)Nc4cccc5c4CN(C4CCC(=O)NC4=O)C5=O)CC3)cc2)cc1C(C)C (stereo not shown)    0.203
3. CCc1c2c(nc3ccc(OC(=O)N4CCC(CCn5ccc6cc(-n7c(O)nnc7-c7cc(C(C)C)c(O)cc7O)ccc65)CC4)cc13)-c1cc3c(c(=O)n1C2)COC(=O)[C@]3(O)CC    0.157
4. CCc1c2c(nc3ccc(OC(=O)N4CCN(Cc5ccc(-n6c(O)nnc6-c6cc(C(C)C)c(O)cc6O)cc5)CC4)cc13)-c1cc3c(c(=O)n1C2)COC(=O)C3(O)CC (stereo not shown)    0.102

Hi! Can you tell me EC50 for each of these compounds?
1. CCNC(=O)c1nnc(-c2cc(C(C)C)c(O)cc2O)n1-c1ccc(CN2CCC(C(=O)N3CCC(C(=O)N[C@H]4C[C@H](O[C@H]5C[C@](O)(C(=O)CO)Cc6c(O)c7c(c(O)c65)C(=O)c5c(OC)cccc5C7=O)O[C@@H](C)[C@H]4O)CC3)CC2)cc1
2. CCc1c2c(nc3ccc(OC(=O)N4CCC[C@H]4C(=O)N4CCC(CCn5ccc6cc(-n7c(O)nnc7-c7cc(C(C)C)c(O)cc7O)ccc65)CC4)cc13)-c1cc3c(c(=O)n1C2)COC(=O)[C@]3(O)CC
3. CCc1c2c(nc3ccc(OC(=O)N4CCN(c5ccc(-n6c(O)nnc6-c6cc(C(C)C)c(O)cc6O)cc5)CC4)cc13)-c1cc3c(c(=O)n1C2)COC(=O)C3(O)CC (stereo not shown)

1. 0.0933
2. 0.091
3. 0.0966

====

Target: UniProt P07900
Experiment: Hsp90α binding assay (fluorescence polarization, FITC-labeled geldanamycin)
Conditions: read-out: Hsp90 binding EC50
Field: pEC50. Provide a value for each of the compounds that follow.
One number for each entry, as −log10 of the molar value.

Illustrative cases are given below, each with its answer.
1) CCc1c2c(nc3ccc(OC(=O)N4CCC[C@H]4C(=O)N4CCN(c5ccc(-n6c(O)nnc6-c6cc(C(C)C)c(O)cc6O)cc5)CC4)cc13)-c1cc3c(c(=O)n1C2)COC(=O)[C@]3(O)CC    7.08
2) CCNC(=O)c1nnc(-c2cc(C(C)C)c(O)cc2O)n1-c1ccc(OC2CCN(C(=O)[C@@H]3CCCN3C(=O)Oc3ccc4nc5c(c(CC)c4c3)Cn3c-5cc4c(c3=O)COC(=O)[C@]4(O)CC)CC2)cc1    7.26
3) CCc1c2c(nc3ccc(O)cc13)-c1cc3c(c(=O)n1C2)COC(=O)[C@@]3(CC)OC(=O)N1CCC(CCn2ccc3cc(-n4c(O)nnc4-c4cc(C(C)C)c(O)cc4O)ccc32)CC1    6.91
4) CC(C)c1cc(-c2nnc(O)n2-c2ccc(CC(=O)N(C)CCOC(=O)Nc3cccc4c3CN(C3CCC(=O)NC3=O)C4=O)cc2)c(O)cc1O (centres unmarked)    6.99

Please examine the following record next.
Looking for the measured pEC50 of CCNC(=O)c1nnc(-c2cc(C(C)C)c(O)cc2O)n1-c1ccc(CN2CCC(C(=O)N3CCC(n4cc(-c5cnc(N)c(O[C@H](C)c6c(Cl)ccc(F)c6Cl)c5)cn4)CC3)CC2)cc1 , can you help? 7.02
